System: PC-3
Method: Antiproliferative activity against human PC3 cells after 72 hrs by MTT assay
Format: functional, cell-based
Experimental conditions: PC-3, 72 h
Label true (1) when IC50 < 8 µM; otherwise false (0).

{"Input smiles": "O=c1[nH]cc(F)c(=O)[nH]1", "Assigned class": "true (1)"}
{"Input smiles": "CCCCCCCCCCNC[C@@H]1OC[C@H](N)[C@H]1O", "Assigned class": "false (0)"}

Q) Identify whether the compound CCCCCCCNC[C@@H]1OC[C@H](N)[C@@H]1O records IC50 below 8 µM.
A) false (0)

Q) Now give it for CCCCCCCCCCCCCCNC[C@@H]1OC[C@H](N)[C@@H]1O too.
A) true (1)

Q) What about this compound? CCCCCCCCCCNC[C@@H]1OC[C@H](N)[C@@H]1O
A) false (0)

Q) # repeat for CCCCCCCCNC[C@@H]1OC[C@H](N)[C@H]1O
A) false (0)

Q) Same for CCCCCCCCCNC[C@@H]1OC[C@H](N)[C@@H]1O
A) true (1)

Q) Another compound to check: CCCCCCCNC[C@@H]1OC[C@H](N)[C@H]1O
A) false (0)

Q) How about this compound: CCCCCCCCCCCNC[C@@H]1OC[C@H](N)[C@H]1O
A) false (0)

----------
System: MCF7
Method: Antiproliferative activity against human MCF7 cells after 72 hrs by MTT assay
Format: functional, cell-based
Experimental conditions: MCF7, 72 h
Here, each record is paired with measured pIC50 data.
Entry type: numeric. Quantity: pIC50, the -log10 of concentration in molar units.

Q) For CCCCCCCCCCCCCCNC[C@@H]1OC[C@H](N)[C@H]1O , what is its reported pIC50?
A) 5.05

Q) CCCCCCCCNC[C@@H]1OC[C@H](N)[C@@H]1O , same question.
A) 4.02

Q) Again, but for CCCCCCCCCNC[C@@H]1OC[C@H](N)[C@H]1O
A) 4.22

Q) Next compound: CCCCCCCCCCCCNC[C@@H]1OC[C@H](N)[C@@H]1O
A) 5.74

----------
Tested on: PC-3
Method: Antiproliferative activity against human PC3 cells after 72 hrs by MTT assay
Type: functional, cell-based
Experimental conditions: PC-3, 72 h
IC50 listing for selected molecules.
Write the number in nM without appending the unit.

A selection of reference data follows.
{"Input smiles": "CCCCCCCCCCCCCCNC[C@@H]1OC[C@H](N)[C@H]1O", "Assayed target": "PC-3", "IC50 (nM)": 1990}
{"Input smiles": "CCCCCCCCCCCCCC[C@@H]1OC[C@H](N)[C@@H]1O", "Assayed target": "PC-3", "IC50 (nM)": 700}
{"Input smiles": "CCCCCCCCCCCCNC[C@@H]1OC[C@H](N)[C@@H]1O", "Assayed target": "PC-3", "IC50 (nM)": 850}
{"Input smiles": "CCCCCCCCCCCNC[C@@H]1OC[C@H](N)[C@@H]1O", "Assayed target": "PC-3", "IC50 (nM)": 3330}
{"Input smiles": "CCCCCCCCCCCCNC[C@@H]1OC[C@H](N)[C@H]1O", "Assayed target": "PC-3", "IC50 (nM)": 2380}

Q) Reported IC50, molecule CCCCCCCCCNC[C@@H]1OC[C@H](N)[C@H]1O : ____
A) 7650

Q) And what about the molecule CCCCCCCCNC[C@@H]1OC[C@H](N)[C@@H]1O ?
A) 13800
